Tested system: Phosphodiesterase 1 (Homo sapiens, UniProt P54750+Q01064+Q14123)
Assay text: Inhibitory activity against PDE1 from cerebral cortex
Type: tissue-based
Assay metric: IC50

Here is how some molecules turned out for IC50.
# Molecule, IC50
data = [
    ("CCCN1C(=O)N2CCN=C2c2c1ncn2CCC", "> 100 µM"),
    ("CCCn1cnc2c1n(CCC)c(=O)n1nnnc21", "> 100 µM"),
]

Exercise: Fill in the blank: the reported IC50 of CCCN1C(=O)N2CCN=C2c2[nH]cnc21 is ____.
Solution: > 100 µM

Exercise: For CCCN1C(=O)N2CCN=C2c2ncn(CCC)c21 then?
Solution: > 100 µM

Exercise: For CCCN1C(=O)N2CCCN=C2c2ncn(CCC)c21 then?
Solution: > 100 µM

Exercise: For CCCn1c(=O)n2nnnc2c2[nH]cnc21 then?
Solution: > 100 µM

Exercise: For Cn1c(=O)c2nc[nH]c2n(C)c1=O.O [THEOPHYLLINE] then?
Solution: 356 µM

Exercise: For CCCN1C(=O)N2CCCCN=C2c2[nH]cnc21 then?
Solution: > 100 µM
